Give MIC for every item shown.
- System: Proteus vulgaris HX-19
- experiment.description: Antibacterial activity, agar-dilution MIC, organism No. 21
- Format: cell-based
- condition.description: Proteus vulgaris, HX19; Organism No. 21, bouillon-agar; read-out: Minimum Inhibitory Concentration

Input line: Hello, I am looking for reported MIC with Proteus vulgaris HX-19 for [C-]#[N+]C12CC3(/C=C/C(=O)OCc4cc([N+](=O)[O-])ccc4O)OC3C1O2 (stereo not shown) . Could you help?
Output line: > 200 µg/mL

Input line: Provide value of MIC for this record tested with Proteus vulgaris HX-19: [C-]#[N+]C12CC3(/C=C/C(=O)Nc4ccc(C(=O)OC)cc4)OC3C1O2 (stereo not shown)
Output line: < 0.05 µg/mL

Input line: I'm curious: which MIC was measured for [C-]#[N+]C12CC3(/C=C/C(=O)Nc4cccc([N+](=O)[O-])c4)OC3C1O2 (stereo not shown) tested on Proteus vulgaris HX-19?
Output line: < 0.05 µg/mL

Input line: Checklist item: MIC tested on Proteus vulgaris HX-19, entry [C-]#[N+]C12CC3(/C=C/C(=O)Nc4ccc(N)cc4)OC3C1O2 (stereo not shown) , value?
Output line: 1.56 µg/mL
